# System Under Test: tau aggregates (Tau-K18 protein) (Homo sapiens, UniProt P10636)
# Construct: aggregation of Tau-K18 protein (0.5 mg/ml in PBS) purified and isolated from E. coli; made in house; host or cells: E. coli
# Sequence (P10636 561-685 limits assumed): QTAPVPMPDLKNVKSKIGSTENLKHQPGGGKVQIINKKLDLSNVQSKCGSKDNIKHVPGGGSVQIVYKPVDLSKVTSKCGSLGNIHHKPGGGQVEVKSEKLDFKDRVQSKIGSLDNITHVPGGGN
# Assay Overview: In vitro binding assay (fluorescence labeling ability) to tau aggregates
# Cond: compound 10 μM
Endpoint Label: SItaumono: selectivity index, tau aggregate versus tau monomer

>>> print(df.to_string())
                                   compound  result
0  COc1ccc2nc(/C=C/C=C/c3ccc(N(C)C)cc3)ccc2c1 [Compound 15c]     3.9
1  COc1ccc2nc(/C=C/C(=O)c3ccc(C)cc3)ccc2c1 [Compound 13d]     4.8
2  COc1ccc2nc(/C=C/C=C/c3cccc([N+](=O)[O-])c3)ccc2c1 [Compound 15g]     3.7
